Data provenance is patent US9062078B2.

Target: rat orexin 1 receptor (Rattus norvegicus)
Experiment: Rat orexin 1 receptor radioligand binding (competitive, [3H]-SB674042, HEK293 cell preparations)
Conditions: rOX1 Ki (nm)
Measured endpoint: Ki (µM)
Please reply with the bare figure in µM and do not write the unit itself.

# input # return recorded Ki for input Cc1ccc(-n2nccn2)c(C(=O)N2C3CCC2C(COc2ccc(Br)cn2)C3)n1 (racemic)
# output 0.081

# input # return recorded Ki for input Cc1ccc(C(=O)N2C3CCC2C(Nc2ccc(C(F)(F)F)cn2)C3)c(-n2ccnn2)n1 (racemic)
# output 0.589

# input # return recorded Ki for input Cc1nc(C(=O)N2C3CCC2C(COc2ccccn2)C3)c(-c2ccccc2)s1 (racemic)
# output 0.02

# input # return recorded Ki for input Cc1ccc(-c2ncccn2)c(C(=O)N2C3CCC2C(COc2ccccn2)C3)n1 (racemic)
# output 0.031
